src = the supplement of paper PMC10307832

test system: LCLC-103H; test: relative viability (nuclei count vs DMSO), 5 days (fraction); higher = more cells survive; settings: first compound 500 µM
We label by threshold. Values of relative viability strictly beneath 0.3 are Condition met. Values of 0.3 and up are Condition not met.

Data request: Dear reviewer, please state whether O=C(O)CCCCC(CCSCc1ccccc1)SCc1ccccc1 (stereo not given) [CPI-613] + COc1cc2c(Oc3ccc(NC(=O)C4(C(=O)Nc5ccc(F)cc5)CC4)cc3F)ccnc2cc1OCCCN1CCOCC1 [Foretinib] (partner 0.25 µM) has relative viability strictly beneath 0.3.
Data returned: Condition met

Data request: Likewise for O=C(O)CCCCC(CCSCc1ccccc1)SCc1ccccc1 (stereo not given) [CPI-613] + Nc1ncn([C@H]2C[C@H](O)[C@@H](CO)O2)c(=O)n1 [Decitabine] (partner 2 µM) ?
Data returned: Condition met

Data request: Another compound to look at: O=C(O)CCCCC(CCSCc1ccccc1)SCc1ccccc1 (stereo not given) [CPI-613] + O=C(CCCCCCC(=O)Nc1ccccc1)NO [Vorinostat] (partner 1 µM)
Data returned: Condition met

Data request: What do we get for O=C(O)CCCCC(CCSCc1ccccc1)SCc1ccccc1 (stereo not given) [CPI-613] + Cc1nc(NC(=O)N2CCC[C@H]2C(N)=O)sc1-c1ccnc(C(C)(C)C(F)(F)F)c1 [Alpelisib] (partner 2 µM) ?
Data returned: Condition not met

Data request: Now give it for O=C(O)CCCCC(CCSCc1ccccc1)SCc1ccccc1 (stereo not given) [CPI-613] + CC(C)C[C@H](NC(=O)[C@H](Cc1ccccc1)NC(=O)c1cnccn1)B(O)O [Bortezomib] (partner 0.002 µM) too.
Data returned: Condition not met

* * *

system: NCI-H596; test: relative viability (nuclei count vs DMSO), 5 days (fraction); higher = more cells survive; settings: first compound 0.8 µM
# binning rule on relative viability: low end (below 0.6), middle (0.6 to below 1), high end (1 or more)

Data request: For O=c1[nH]c2ccccc2n1C1CCN(CCCC(c2ccc(F)cc2)c2ccc(F)cc2)CC1 [Pimozide] + NC(=O)Nc1cc(-c2cccc(F)c2)sc1C(=O)N[C@H]1CCCNC1 [AZD7762] (partner 0.2 µM) , which relative viability bin applies?
Data returned: high end

Data request: Moving on to the next compound: Cc1cnc(-c2cnc(NCCNc3ccc(C#N)cn3)nc2-c2ccc(Cl)cc2Cl)[nH]1 + Nc1nc2[nH]cc(CCc3ccc(C(=O)N[C@@H](CCC(=O)O)C(=O)O)cc3)c2c(=O)[nH]1 [Pemetrexed] (partner 0.2 µM)
Data returned: low end

Data request: Next compound up: Cc1cnc(-c2cnc(NCCNc3ccc(C#N)cn3)nc2-c2ccc(Cl)cc2Cl)[nH]1 + COc1cc2c(Oc3ccc(NC(=O)C4(C(=O)Nc5ccc(F)cc5)CC4)cc3F)ccnc2cc1OCCCN1CCOCC1 [Foretinib] (partner 0.25 µM)
Data returned: middle

Data request: Param item: Cc1cnc(-c2cnc(NCCNc3ccc(C#N)cn3)nc2-c2ccc(Cl)cc2Cl)[nH]1 + Cc1nc(Nc2ncc(C(=O)Nc3c(C)cccc3Cl)s2)cc(N2CCN(CCO)CC2)n1 [Dasatinib] (partner 0.075 µM)
Data returned: middle

Data request: Next up: O=c1[nH]c2ccccc2n1C1CCN(CCCC(c2ccc(F)cc2)c2ccc(F)cc2)CC1 [Pimozide] + Cc1cc(Nc2cc(N3CCN(C)CC3)nc(Sc3ccc(NC(=O)C4CC4)cc3)n2)n[nH]1 [Tozasertib] (partner 0.1 µM)
Data returned: middle

Data request: Now try O=c1[nH]c2ccccc2n1C1CCN(CCCC(c2ccc(F)cc2)c2ccc(F)cc2)CC1 [Pimozide] + CCNC(=O)c1noc(-c2cc(C(C)C)c(O)cc2O)c1-c1ccc(CN2CCOCC2)cc1 [Luminespib] (partner 0.01 µM) .
Data returned: high end

Data request: What do we get for Cc1cnc(-c2cnc(NCCNc3ccc(C#N)cn3)nc2-c2ccc(Cl)cc2Cl)[nH]1 + C[C@@H](Oc1cc(-c2cnn(C3CCNCC3)c2)cnc1N)c1c(Cl)ccc(F)c1Cl [Crizotinib] (partner 1 µM) ?
Data returned: middle

Data request: Subsequent entry: Cc1cnc(-c2cnc(NCCNc3ccc(C#N)cn3)nc2-c2ccc(Cl)cc2Cl)[nH]1 + CS(=O)(=O)N1CCN(Cc2cc3nc(-c4cccc5[nH]ncc45)nc(N4CCOCC4)c3s2)CC1 [Pictilisib] (partner 1 µM)
Data returned: low end

* * *

tested on: LCLC-97TM1; experiment: relative viability (nuclei count vs DMSO), 5 days (fraction); higher = more cells survive; conditions: first compound 0.1581 µM
readout_kind: relative viability
The answer should be a number; do not append a unit.

Data request: If you can, please state the reported relative viability value of COc1cc2nccc(Oc3ccc(NC(=O)Nc4cc(C)on4)c(Cl)c3)c2cc1OC [Tivozanib] + Nc1ncn([C@H]2C[C@H](O)[C@@H](CO)O2)c(=O)n1 [Decitabine] (partner 2 µM) .
Data returned: 0.221

Data request: Please give the result for Nc1ccn([C@@H]2O[C@H](CO)[C@@H](O)[C@@H]2O)c(=O)n1 [Cytarabine] + CS(=O)(=O)CCNCc1ccc(-c2ccc3ncnc(Nc4ccc(OCc5cccc(F)c5)c(Cl)c4)c3c2)o1 [Lapatinib] (partner 2 µM) too.
Data returned: 0.161

Data request: Queued: COc1cc2nccc(Oc3ccc(NC(=O)Nc4cc(C)on4)c(Cl)c3)c2cc1OC [Tivozanib] + Cc1nc(NC(=O)N2CCC[C@H]2C(N)=O)sc1-c1ccnc(C(C)(C)C(F)(F)F)c1 [Alpelisib] (partner 2 µM)
Data returned: 0.237

Data request: Request: Nc1ccn([C@@H]2O[C@H](CO)[C@@H](O)[C@@H]2O)c(=O)n1 [Cytarabine] + C[C@@H](Oc1cc(-c2cnn(C3CCNCC3)c2)cnc1N)c1c(Cl)ccc(F)c1Cl [Crizotinib] (partner 1 µM)
Data returned: 0.115

Data request: Here is the next molecule: COc1cc2nccc(Oc3ccc(NC(=O)Nc4cc(C)on4)c(Cl)c3)c2cc1OC [Tivozanib] + C[C@]1(O)C[C@@H](c2nc(-c3ccc4ccc(-c5ccccc5)nc4c3)c3c(N)nccn32)C1 [Linsitinib] (partner 1 µM)
Data returned: 0.187

Data request: Try this molecule next: Nc1ccn([C@@H]2O[C@H](CO)[C@@H](O)[C@@H]2O)c(=O)n1 [Cytarabine] + Nc1ncn([C@H]2C[C@H](O)[C@@H](CO)O2)c(=O)n1 [Decitabine] (partner 2 µM)
Data returned: 0.127

Data request: Now the molecule Nc1ccn([C@@H]2O[C@H](CO)[C@@H](O)[C@@H]2O)c(=O)n1 [Cytarabine] + CS(=O)(=O)N1CCN(Cc2cc3nc(-c4cccc5[nH]ncc45)nc(N4CCOCC4)c3s2)CC1 [Pictilisib] (partner 1 µM)
Data returned: 0.124

Data request: And what about the molecule Nc1ccn([C@@H]2O[C@H](CO)[C@@H](O)[C@@H]2O)c(=O)n1 [Cytarabine] + CC(C)C[C@H](NC(=O)[C@H](Cc1ccccc1)NC(=O)c1cnccn1)B(O)O [Bortezomib] (partner 0.002 µM) ?
Data returned: 0.084

Data request: What about this molecule? COc1cc2nccc(Oc3ccc(NC(=O)Nc4cc(C)on4)c(Cl)c3)c2cc1OC [Tivozanib] + COc1cccc2cc(-c3nc([C@H]4CC[C@H](C(=O)O)CC4)n4ncnc(N)c34)[nH]c12 [OSI-027] (partner 0.5 µM)
Data returned: 0.476

* * *

system: ChaGo-K-1; assay: relative viability (nuclei count vs DMSO), 5 days (fraction); higher = more cells survive; details: first compound 0.1581 µM
Provide the recorded relative viability for the entries that follow.

Data request: For ChaGo-K-1, provide relative viability of COc1cc2nccc(Oc3ccc(NC(=O)Nc4cc(C)on4)c(Cl)c3)c2cc1OC [Tivozanib] + CC(C)C[C@H](NC(=O)[C@H](Cc1ccccc1)NC(=O)c1cnccn1)B(O)O [Bortezomib] (partner 0.002 µM) please.
Data returned: 0.969

Data request: Subsequent entry: Nc1ccn([C@@H]2O[C@H](CO)[C@@H](O)[C@@H]2O)c(=O)n1 [Cytarabine] + COc1cc2c(Oc3ccc(NC(=O)C4(C(=O)Nc5ccc(F)cc5)CC4)cc3F)ccnc2cc1OCCCN1CCOCC1 [Foretinib] (partner 0.25 µM)
Data returned: 0.259

Data request: Same question, COc1cc2nccc(Oc3ccc(NC(=O)Nc4cc(C)on4)c(Cl)c3)c2cc1OC [Tivozanib] + NC(=O)Nc1cc(-c2cccc(F)c2)sc1C(=O)N[C@H]1CCCNC1 [AZD7762] (partner 0.2 µM) this time
Data returned: 0.909

Data request: Now give it for COc1cc2nccc(Oc3ccc(NC(=O)Nc4cc(C)on4)c(Cl)c3)c2cc1OC [Tivozanib] + Nc1ncn([C@H]2C[C@H](O)[C@@H](CO)O2)c(=O)n1 [Decitabine] (partner 2 µM) too.
Data returned: 0.543

Data request: Try this compound next: Nc1ccn([C@@H]2O[C@H](CO)[C@@H](O)[C@@H]2O)c(=O)n1 [Cytarabine] + CC1(C)CCC(c2ccc(Cl)cc2)=C(CN2CCN(c3ccc(C(=O)NS(=O)(=O)c4ccc(N[C@H](CCN5CCOCC5)CSc5ccccc5)c(S(=O)(=O)C(F)(F)F)c4)cc3)CC2)C1 [Navitoclax] (partner 0.5 µM)
Data returned: 0.364

Data request: Would you mind doing COc1cc2nccc(Oc3ccc(NC(=O)Nc4cc(C)on4)c(Cl)c3)c2cc1OC [Tivozanib] + CS(=O)(=O)N1CCN(Cc2cc3nc(-c4cccc5[nH]ncc45)nc(N4CCOCC4)c3s2)CC1 [Pictilisib] (partner 1 µM) as well?
Data returned: 0.388

Data request: And COc1cc2nccc(Oc3ccc(NC(=O)Nc4cc(C)on4)c(Cl)c3)c2cc1OC [Tivozanib] + Cc1cc(Nc2cc(N3CCN(C)CC3)nc(Sc3ccc(NC(=O)C4CC4)cc3)n2)n[nH]1 [Tozasertib] (partner 0.1 µM) ?
Data returned: 0.256

Data request: Could you do the same for Nc1ccn([C@@H]2O[C@H](CO)[C@@H](O)[C@@H]2O)c(=O)n1 [Cytarabine] + COc1cccc2cc(-c3nc([C@H]4CC[C@H](C(=O)O)CC4)n4ncnc(N)c34)[nH]c12 [OSI-027] (partner 0.5 µM) , please?
Data returned: 0.165

Data request: Now consider Nc1ccn([C@@H]2O[C@H](CO)[C@@H](O)[C@@H]2O)c(=O)n1 [Cytarabine] + Nc1nc2[nH]cc(CCc3ccc(C(=O)N[C@@H](CCC(=O)O)C(=O)O)cc3)c2c(=O)[nH]1 [Pemetrexed] (partner 0.2 µM) and answer again.
Data returned: 0.209
